The measured values listed here are drawn from ChEMBL document CHEMBL1123271.

# reported IC50; entries follow
Species on record: Rattus norvegicus
PROCEDURE_SUMMARY: Compound was tested for its ability to inhibit dopamine uptake
Assay type: functional, organism-based
Return type: number; implicit unit µM.

Please review the entries below; each comes with its answer.
- COMPOUND: "CC(C)(N)Cc1ccc(N)cc1F"
  READOUT_NAME: "IC50"
  UNIT_TAG: "µM"
  NUMERIC_VALUE: 1.6
- COMPOUND: "Cc1cc(N)ccc1CC(C)(C)N"
  READOUT_NAME: "IC50"
  UNIT_TAG: "µM"
  NUMERIC_VALUE: 40
- COMPOUND: "Cc1cc(N)c(Br)cc1CC(C)N (stereo not given)"
  READOUT_NAME: "IC50"
  UNIT_TAG: "µM"
  NUMERIC_VALUE: 2
- COMPOUND: "CC(N)Cc1ccc(N)cc1F (stereo not given)"
  READOUT_NAME: "IC50"
  UNIT_TAG: "µM"
  NUMERIC_VALUE: 0.42
- COMPOUND: "CC(N)Cc1c(Cl)cc(N)cc1Cl (stereo not given)"
  READOUT_NAME: "IC50"
  UNIT_TAG: "µM"
  NUMERIC_VALUE: 30

Enquiry: Returns the measured IC50 for the input compound. Input: `CC(C)(N)Cc1ccc(N)cc1Cl`
Return: 15

Enquiry: Given the entry CC(N)Cc1ccc(N)cc1 (stereo not given) , report its measured IC50.
Return: 0.16

Enquiry: Can you look up the measured IC50 of Cc1cc(N)ccc1CC(C)N (stereo not given) for me?
Return: 11

Enquiry: // query IC50 value for entry CCc1cc(N)ccc1CC(C)N (stereo not given)
Return: 20

Enquiry: Please look up its IC50: CC(N)Cc1ccc(N)cc1Cl (stereo not given)
Return: 0.07

###

Organism: Rattus norvegicus
PROCEDURE_SUMMARY: Determined from log concentration-inhibition curves using rat brain mitochondrial preparation as enzyme and phenethylamine (PEA) as a substrate
Type: functional
Items are presented alongside their recorded IC50.
Report as a plain number; the unit mM is understood.

- COMPOUND: "CC(N)Cc1ccc(N)cc1F (stereo not given)"
  IC50, mM: 0.8
- COMPOUND: "CC(N)Cc1ccc(N)cc1 (stereo not given)"
  IC50, mM: 7
- COMPOUND: "CC(C)(N)Cc1ccc(N)cc1F"
  IC50, mM: 2.8
- COMPOUND: "Cc1cc(N)c(Br)cc1CC(C)N (stereo not given)"
  IC50, mM: 0.29
- COMPOUND: "CC(C)(N)Cc1ccc(N)cc1Cl"
  IC50, mM: 1.7

Enquiry: Fill blank: measured IC50 of the compound `Cc1cc(N)ccc1CC(C)(C)N` is ____.
Return: 1.5

Enquiry: Please report the recorded IC50 for CCc1cc(N)ccc1CC(C)N (stereo not given) .
Return: 1.2

Enquiry: Any idea what its IC50 is? The compound is CC(N)Cc1ccc(N)cc1Cl (stereo not given)
Return: 0.75

Enquiry: Would you kindly share the measured IC50 for CC(N)Cc1c(Cl)cc(N)cc1Cl (stereo not given) ?
Return: 0.34

Enquiry: Fill in the blank: the reported IC50 of Cc1cc(N)ccc1CC(C)N (stereo not given) is ____.
Return: 2.5

###

Tested on: Rattus norvegicus
PROCEDURE_SUMMARY: Compound was tested for the behavioral changes in reserpinized rats that indicates the release of dopamine by subcuteneous administration
Type: functional
Below is a list of entries, each paired with its recorded Least dose value.

Please review the following examples before continuing.
- COMPOUND: "Cc1cc(N)c(Br)cc1CC(C)N (stereo unspecified)"
  Least dose: ">211 mg/kg"
- COMPOUND: "CC(C)(N)Cc1ccc(N)cc1Cl"
  Least dose: ">247 mg/kg"
- COMPOUND: "CCc1cc(N)ccc1CC(C)N (stereo unspecified)"
  Least dose: ">269 mg/kg"
- COMPOUND: "CC(N)Cc1ccc(N)cc1Cl (stereo unspecified)"
  Least dose: ">131 mg/kg"

Enquiry: Name the reported Least dose value associated with the compound Cc1cc(N)ccc1CC(C)N (stereo unspecified)
Return: >270 mg/kg

Enquiry: Quick one: Least dose of `Cc1cc(N)ccc1CC(C)(C)N` ?
Return: >269 mg/kg
